# target: KOR (Homo sapiens)
# protocol details: [35S]GTPγS binding to membranes of CHO cells stably expressing the KOR
# Format: biochemical
# condition details: read-out: EC50, KOR; [35S]GTPγS binding, CHO membranes, 100 mM NaCl; mean ± SEM n=3–4
readout kind: pEC50
pEC50 here: minus log base 10 of the concentration, concentration in moles per litre.

// query What pEC50 value was documented for this molecule, CN(C(=O)/C=C/c1ccoc1)[C@@H]1CC[C@@]2(O)[C@H]3Cc4cccc5c4[C@@]2(CCN3CC2CC2)[C@H]1O5 [42B] ?
// result 7.59

* * *

# target: KOR (Homo sapiens, UniProt P41145)
# Sequence (P41145 whole entry): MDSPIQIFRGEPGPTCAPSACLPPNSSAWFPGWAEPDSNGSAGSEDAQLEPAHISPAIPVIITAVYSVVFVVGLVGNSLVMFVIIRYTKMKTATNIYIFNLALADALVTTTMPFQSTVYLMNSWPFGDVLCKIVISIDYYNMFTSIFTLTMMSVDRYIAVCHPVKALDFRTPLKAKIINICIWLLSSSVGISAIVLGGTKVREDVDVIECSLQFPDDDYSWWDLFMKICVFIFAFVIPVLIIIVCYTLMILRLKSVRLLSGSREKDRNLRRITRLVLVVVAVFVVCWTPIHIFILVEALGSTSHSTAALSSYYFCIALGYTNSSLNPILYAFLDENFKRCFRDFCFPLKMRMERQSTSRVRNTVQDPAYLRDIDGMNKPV
# protocol details: Tango assay
# Type: cell-based
# condition details: read-out: Tango assay EC50; β-arrestin2 recruitment; mean ± SEM n=3
readout kind: EC50
Report field: quantity (unit follows the number).

// query Item CN(C(=O)/C=C/c1ccoc1)[C@@H]1CC[C@@]2(O)[C@H]3Cc4cccc5c4[C@@]2(CCN3CC2CC2)[C@H]1O5 [42B] has what recorded EC50?
// result 3.22 nM
